Entry source: the RNAGym collection of RNA variant scans (doi:10.1126/science.aae0568)

B1: tRNA (parent)
chain: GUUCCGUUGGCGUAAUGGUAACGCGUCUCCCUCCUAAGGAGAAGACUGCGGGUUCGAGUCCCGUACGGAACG

# Variants of: B1
# Protocol description: yeast fitness relative to wild type (ratio to wild type); higher = fitter; tRNA-Arg(CCU), competitive growth, 37 C, YPD
This sample holds only a part of the variants without activity.
Please mark YES if the recorded yeast fitness is equal to or greater than 0.6, and NO if it falls below.

# example entries with known answers
Mutation label	Label value
C30U G39C	YES
U19G C29U	YES
A21U C29A U35A A43U C62U G68C	NO
G6A C34G G68A	NO
C24G C61G	NO

Asked: Please tell me: is the variant C24U C29A U32A C46G A70C at or over 0.6 in terms of yeast fitness?
Given back: NO

Asked: Then G12C C31G C49G C55G A69U ?
Given back: NO

Asked: Then U3A C62U U64C ?
Given back: YES

Asked: Then U47C A65G G68C ?
Given back: NO
